- assay name: melting temperature; melt of duplexes
- particulars: sodium 0.0675 M; strand 1 µM
Tm for assorted substances
Quick reminder: number only, in °C, skip the unit.

# annotated cases, reported Tm shown
CGACGTGCCGGATGTGCTG+CAGCACATGCGGCACGTCG ((((((((((.((((((((+)))))))).)))))))))) : 62.6
CGACGTGCAAAATGTGCTG+CAGCACATTCAGCACGTCG ((((((((..(((((((((+)))))))))..)))))))) : 52.1
CGACGTGCCGGATGTGCTG+CAGCACATGGTGCACGTCG ((((((((...((((((((+))))))))...)))))))) : 47

Prompt: Item CGACGTGCGTGATGTGCTG+CAGCACATCTCGCACGTCG (((((((((.(((((((((+))))))))).))))))))) has what recorded Tm?
Response: 61.3

Prompt: Need Tm, item CGACGTGCCTCATGTGCTG+CAGCACATCCAGCACGTCG ((((((((...((((((((+))))))))...))))))))
Response: 47.4

Prompt: State the recorded Tm for this entry: CGACGTGCCAAATGTGCTG+CAGCACATGGTGCACGTCG ((((((((...((((((((+))))))))...))))))))
Response: 48.9

Prompt: State the recorded Tm for this entry: CGACGTGCTGTATGTGCTG+CAGCACATGCCGCACGTCG ((((((((.(.((((((((+)))))))).).))))))))
Response: 52.8

Prompt: Which Tm value is on record for CGACGTGCGAGATGTGCTG+CAGCACATATAGCACGTCG ((((((((.(.((((((((+)))))))).).)))))))) ?
Response: 54.6

Prompt: Fill blank: measured Tm of the substance CGACGTGCTCAATGTGCTG+CAGCACATAAAGCACGTCG (((((((((..((((((((+))))))))..))))))))) is ____.
Response: 52.1

Prompt: Requested field: Tm. Item: CGACGTGCAGAATGTGCTG+CAGCACATTGCGCACGTCG ((((((((..(((((((((+)))))))))..))))))))
Response: 52.1

Prompt: // Tm lookup, key: CGACGTGCCCTATGTGCTG+CAGCACATCTTGCACGTCG ((((((((...((((((((+))))))))...))))))))
Response: 47.3

Prompt: What does the record list as Tm for CGACGTGCTTAATGTGCTG+CAGCACATGCAGCACGTCG (((((((((..((((((((+))))))))..))))))))) ?
Response: 52

Prompt: Which Tm reading was recorded for the substance CGACGTGCAGAATGTGCTG+CAGCACATGACGCACGTCG ((((((((...((((((((+))))))))...)))))))) ?
Response: 53.1

Prompt: Tell me the measured Tm of CGACGTGCAGTATGTGCTG+CAGCACATCGCGCACGTCG ((((((((...((((((((+))))))))...)))))))) , please.
Response: 49.9

Prompt: GET /values?readout=Tm&item= CGACGTGCAACATGTGCTG+CAGCACATCATGCACGTCG (((((((((..((((((((+))))))))..)))))))))
Response: 49

Origin of values: the array DNA melting data of Ke et al.
